Just for reference, patent US10398315B2 is where these values come from.

methodNotes: Concentration of drug in the blood calculated from pre-clinical in vivo dose from literature
testContext: assuming volume of blood in mice 2 ml
endpointName: Concentration of drug in the blood (µM)
Could you give me the number in µM? Just the number is fine.

Examples with their reported Concentration of drug in the blood follow.
[[record]]
chemicalstring = "[Zn+2].c1ccc2c(c1)-c1nc-2nc2[n-]c(nc3nc([n-]c4nc(n1)-c1ccccc1-4)-c1ccccc1-3)c1ccccc21"
measuredvalue = 3.63

[[record]]
chemicalstring = "CN(C)c1ccc2nc3ccc(=[N+](C)C)cc-3sc2c1"
measuredvalue = 1337.00

[[record]]
chemicalstring = "O=C1C(=C2C(O)=CC(=[N+](Cc3ccccc3)Cc3ccccc3)C=C2O)C([O-])=C1c1c(O)cc(N(Cc2ccccc2)Cc2ccccc2)cc1O"
measuredvalue = 181.40


Consider the record given below.
Query: If you can, please state the reported Concentration of drug in the blood value of C=CC1=C(C)c2cc3[nH]c(cc4nc(cc5[nH]c(cc1n2)c(C)c5CCC(=O)O)C(CCC(=O)O)=C4C)c(C)c3C=C .
Reply: 88.88
